MEASURED_ON: T1, 4H953-bA
T1 chain: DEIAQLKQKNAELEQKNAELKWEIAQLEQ
ASSAY_EXPLANATION: two-hybrid library CCNG1;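 further: natural log of median RNA to DNA barcode read ratio; higher means stronger binding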
MEASURED_PROPERTY: interaction score

{"BINDER": "DEIAQLKQKIAELKQENAELEWKNAQLEQ [4H855-bA]", "TEST_RESULT": -1.71}
{"BINDER": "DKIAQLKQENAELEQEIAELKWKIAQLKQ [4H2702-bA]", "TEST_RESULT": 1.82}
{"BINDER": "DEIAQLEQKIAELKQENAELKWEIAQLKQ [4H346-bA]", "TEST_RESULT": -1.6}
{"BINDER": "DEIAQLEQKNAELKQEIAELEWKIAQLKQ [4H454-bA]", "TEST_RESULT": 0.62}
{"BINDER": "DEIAQLKQKNAELEQEIAELKWENAQLKQ [4H908-bA]", "TEST_RESULT": -0.801}
{"BINDER": "DKNAQLKQKNAELEQKIAELEWEIAQLEQ [4H4001-bA]", "TEST_RESULT": -1.52}
{"BINDER": "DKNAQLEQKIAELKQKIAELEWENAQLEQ [4H3427-bA]", "TEST_RESULT": -1.25}
{"BINDER": "DEIAQLKQKIAELEQEIAELKWENAQLKQ [4H780-bA]", "TEST_RESULT": -0.243}
{"BINDER": "DEIAQLEQEIAELKQEIAELEWKNAQLKQ [4H72-bA]", "TEST_RESULT": -0.161}
{"BINDER": "DEIAQLKQKIAELKQKNAELEWENAQLEQ [4H883-bA]", "TEST_RESULT": -1.68}
{"BINDER": "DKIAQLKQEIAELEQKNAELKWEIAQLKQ [4H2618-bA]", "TEST_RESULT": -1.3}
{"BINDER": "DENQQLKQKIQELKQKIQELKWENQELEQ [4H1899-bN]", "TEST_RESULT": -1.81}
{"BINDER": "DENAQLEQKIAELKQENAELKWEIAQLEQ [4H1369-bA]", "TEST_RESULT": -1.23}
{"BINDER": "DEIAQLKQENAELEQKIAELKWENAQLEQ [4H683-bA]", "TEST_RESULT": -1.67}
